Parameter: IC50. Scope: all listed entries.
Molecular target: BRD4(1) protein (Homo sapiens)
Construct: BRD4(1) protein, 500 nM; inferred from the use of nickel acceptor beads
Assay: AlphaScreen assay: disruption of the interaction of BRD4(1) and biotinylated acetylated peptide
Settings: BRD4(1) protein with H4KAc4-biotin peptide, 20° C.
PROPERTY_LABEL: IC50

{"MOLECULE": "CCN1C(=O)c2cccc3c(S(=O)(=O)NC4CCNC4)ccc1c23 (stereo not shown) [Example 87]", "SYSTEM_TESTED": "BRD4(1) protein (Homo sapiens)", "EXPERIMENTAL_VALUE": "> 20 µM"}
{"MOLECULE": "CCN1C(=O)c2cccc3c(S(=O)(=O)NCCS(C)(=O)=O)ccc1c23 [Example 80]", "SYSTEM_TESTED": "BRD4(1) protein (Homo sapiens)", "EXPERIMENTAL_VALUE": "> 20 µM"}
{"MOLECULE": "CN1C(=O)c2cccc3c(S(=O)(=O)NC4CCCCC4)ccc1c23 [Example 110]", "SYSTEM_TESTED": "BRD4(1) protein (Homo sapiens)", "EXPERIMENTAL_VALUE": "> 20 µM"}
{"MOLECULE": "CCOC(=O)CCNS(=O)(=O)c1ccc2c3c(cccc13)C(=O)N2CC [Example 104]", "SYSTEM_TESTED": "BRD4(1) protein (Homo sapiens)", "EXPERIMENTAL_VALUE": "> 20 µM"}
